# Test system: ACHN renal
# Assay Explanation: NCI tumour cell line growth inhibition, 48 h
Endpoint Label: TGI

# Molecule, Target Under Test, Recorded Value
measured = [
    ("COc1cccc2c1OC1(C=C2)Oc2ccccc2C(=O)N1C (stereo not given)", "ACHN renal", "> 100 µM"),
    ("Cc1cc(C(=O)CCCCOc2ccc(C3=NCCO3)cc2)c(C)n1C", "ACHN renal", "> 100 µM"),
    ("CC(C)C(C)/C=C\\C(C)C1CCC2C3=CC=C4CC(O)CCC4(C)C3CCC21C (stereo not given)", "ACHN renal", "> 65.7 µM"),
    ("Cc1cn(C2CC(O)C(CO)O2)c(=O)[nH]c1=O (stereo not given)", "ACHN renal", "> 5000 µM"),
    ("N#Cc1c(-c2ccccc2)/c(=C\\Nc2ccc(F)cc2)c(=O)n2c1nc1ccccc12", "ACHN renal", "> 100 µM"),
    ("CSC(=S)N/N=C(\\C)c1ccc(S(=O)(=O)N(C)c2ccccc2)cc1", "ACHN renal", "> 100 µM"),
    ("O=c1c2sccc2n(CC2COc3ccccc3O2)c(=O)n1O (stereo not given)", "ACHN renal", "> 100 µM"),
    ("CCCCC(C(=O)NCCNC(=O)CCC(=O)N(C)O)C(=O)NCCNC(=O)CCC(=O)N(C)O", "ACHN renal", "> 100 µM"),
    ("O=C(O)/C=C(/C(=O)O)C12CCN3CC4=CCOC5CC(=O)NC1C5C4CC32 (stereo not given)", "ACHN renal", "> 100 µM"),
    ("O=c1c2sc(=S)n(-c3ccc(F)cc3)c2ncn1/N=C/c1ccc(F)cc1F", "ACHN renal", "> 100 µM"),
    ("CS(=O)(=O)OCC(CCl)(CCl)CCl", "ACHN renal", "> 100 µM"),
    ("CCOC(=O)c1ccc(NCC#CCN2CCOCC2)cc1", "ACHN renal", "> 100 µM"),
    ("Cc1ccc(S(=O)(=O)Nc2ccccc2C(=O)c2ccc(C)c(C)c2)cc1", "ACHN renal", "> 100 µM"),
    ("CCN(CC)c1ccc(-c2cc(-c3cc(OC)c(OC)c(OC)c3)nc(N3CCOCC3)c2C#N)cc1", "ACHN renal", "> 100 µM"),
    ("CCOC(=O)C1=C(C)C2C=C(c3cccs3)CC(c3ccc(Cl)cc3)=C2OC1=O (stereo not given)", "ACHN renal", "> 100 µM"),
]
